# Tested on: K4 kissing-loop RNA reporter
# Test details: apparent KD of K4 kissing-loop reporter; higher = weaker reporter binding
# Applied conditions: Eterna round: R107; input ligand: none
# cutoff 300 nM applies to apparent KD of K4 kissing-loop reporter; >= gives Satisfied, < gives Not satisfied

Past entries and their recorded results:
[
  {
    "Sequence text": "AAAUAGAUCAGUCACCCAGUGAUGUUGGAAGGAGCGUGCGAAAGCACAGGUAGGUCGCCAAAACCUAAGUGGCUGAUCAAAAUAA [#SwitchBubble 4 #K4Early]",
    "Qualitative label": "Satisfied"
  },
  {
    "Sequence text": "AAAUAAAUCGGAGGAUAUCCUUCCCACGUCGAAGUACCGUGCUUGAUGGAGUGAUGUUCGAUCAGAGGAGAAGGCCGAUAAAUAA [Same State FMN B GF20]",
    "Qualitative label": "Satisfied"
  }
]

Inquiry: Reported apparent KD of K4 kissing-loop reporter reaches at least 300 nM for UGGCGAGUGAUGUUCGUUGUUGUAGUGUGCCGAGGACCGGUACGGCCGCCACUCGGGUUGGUUGUUGUUGUUGUUGUUGUUGUUG [whbob_SS_tryp_A] ?
Reply text: Not satisfied

Inquiry: Reported apparent KD of K4 kissing-loop reporter reaches at least 300 nM for GAUUCAGUGAUGUUGGAAGGCGAGCGGGAUACCAGCCAAGACUCAGGCCCUUGGCAGCCCACAUAUCCCAGGUAGAUAGUAGCUC [Same State - Theophylline A (Freestyle 12)] ?
Reply text: Not satisfied

Inquiry: Reported apparent KD of K4 kissing-loop reporter reaches at least 300 nM for AAUACUAUCAGAAGGAGCGUGGAAUAUUCAUCUGUAUCUAAUACGAGUGAUGUUCGUAAUUCACAGGUAGGUCGCUGAUCAAUAA [whbob_Ex_Arginine_B_2th156] ?
Reply text: Not satisfied

###

# System: K4 kissing-loop RNA reporter
# Test details: apparent KD of K4 kissing-loop reporter; higher = weaker reporter binding
# Applied conditions: Eterna round: R107; input ligand: tryptophan 2.4 mM
Would you kindly list apparent KD of K4 kissing-loop reporter for each of these sequences?
Answers are plain numbers, in nM.

[
  {
    "Sequence text": "CUACAUGCACAGGAGUGAUGUUUAUGGGCUCGAGGACCGGUACGGCCGCCACUCGUUAUGGCACGCAGUAGAUAUAGGCGAGGAA [theeternabot_sameState_KL_Trp_A_41]",
    "Tested system": "K4 kissing-loop RNA reporter",
    "apparent KD of K4 kissing-loop reporter [nM]": 871
  },
  {
    "Sequence text": "GGUGUUGUUUGUGCUGUUUUCCUCGUUCCUCGAGGACCGGUACGGCCGCCACUCGAGUGAUGUUUGGGUAGCGAUCCUUGUUAGU [Bdazzled - #7 Exc. Tryptophan A]",
    "Tested system": "K4 kissing-loop RNA reporter",
    "apparent KD of K4 kissing-loop reporter [nM]": 441
  },
  {
    "Sequence text": "AGAACUGUCUGAGAUACCAGCUAAGGAGUGAUGUUCCGGCUCGACGAAACGUCGAGCCAUAGCCCUUGGCAGCUCAGACAGUUCA [#27 K4 Theophylline B Same State]",
    "Tested system": "K4 kissing-loop RNA reporter",
    "apparent KD of K4 kissing-loop reporter [nM]": 244
  },
  {
    "Sequence text": "UGUACCGAGUCAGGAUAUGGCGUCGAAAGACGAAUCGUAGUGAUGUUACGGAUCUGCGAAAGCAGUCCAGAAGGGACUUGGUACU [FmnBS 26 G37+C49]",
    "Tested system": "K4 kissing-loop RNA reporter",
    "apparent KD of K4 kissing-loop reporter [nM]": 182
  }
]

Inquiry: Please indicate apparent KD of K4 kissing-loop reporter recorded for AAGGGCUAGGCGGCCGCCACUGGUCGUGUACACAUACAAACCAGUGAUGUUGGUAUUGUAUGCGACAGGACCGGGCCUAGCCGAA [Exclusion - Tryptophan B (Freestyle 28)]
Reply text: 481

###

Would you kindly list apparent KD of K4 kissing-loop reporter for each of these sequences?
# Tested on: K4 kissing-loop RNA reporter;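 also: bound reporter read as fluorescence of individual clusters on recovered sequencing chips by microscopy, with normalized cluster intensities fitted with a binding model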
# Test details: apparent KD of K4 kissing-loop reporter; higher = weaker reporter binding
# Applied conditions: Eterna round: R107; input ligand: none
Give bare numbers, in nM.

See these solved cases before continuing.
[
  {
    "Sequence text": "AGUGAAGUUAGUGAUGUGUGAGUUUGGGAAGGAGCGCCGAGGAAGGCAGGUAGGUCGCCCAGUGAUGUUGGUGUAAGGAUGAGAG [whbob_Ex_Arginine_A_2t123]",
    "apparent KD of K4 kissing-loop reporter (nM)": 311
  },
  {
    "Sequence text": "AAUUUAUUAACUGAUACCAGACUAAUUUUAUUUAUUAAGUCAAGUGAUGUUUGACUUUAUGUCCCUUGGCAGCAGAAUUAAUUAA [JR_SSTheophyB_Sub019]",
    "apparent KD of K4 kissing-loop reporter (nM)": 124
  },
  {
    "Sequence text": "CCCUCACGAGUGAUGUUCGUAGGGUACAGUCAGGAUAUCAUGCGGUUGAGAAGGGACAGAGAAGGCGGCGACGGGUUGCUUAUCU [Atenus]",
    "apparent KD of K4 kissing-loop reporter (nM)": 277
  },
  {
    "Sequence text": "GGCAUCCAUGGACCUAGUGAUGUUAGGUACCGAGGACCGGUACGGCCGCCACUCGGCCAUGGAUGCCGCAAUCGGAAACGAUUGC",
    "apparent KD of K4 kissing-loop reporter (nM)": 408
  },
  {
    "Sequence text": "UGAUAGGACAGAAGGAGCGGUAGUGAUGUUACCAAAAGGCUAAGGUGUCAAAAGACACCCUACCAGGUAGGUCGCUGUCCUAUCU",
    "apparent KD of K4 kissing-loop reporter (nM)": 137
  }
]

With those in mind, consider the next sequence.
Inquiry: Please indicate apparent KD of K4 kissing-loop reporter recorded for UUGUUUAACUGAAGGAGCGGCAAUUGAUACGUAGAUAUAGUGAUGUUAUAUAAGAUAGAGAGCCAGGUAGGUCGCAGAGGUGUUU [ExArgB.R]
Reply text: 246

###

# Tested on: MS2 coat protein
# Test details: apparent KD of MS2 coat protein; higher = weaker reporter binding
# Applied conditions: Eterna round: R107; input ligand: tryptophan 2.4 mM
Would you kindly list apparent KD of MS2 coat protein for each of these sequences?
Numbers only, in nM.

See these solved cases before continuing.
[
  {
    "Sequence text": "UGGGAAGGAGGAAGGAGCGCCAUAAGGGUGACUGUCUGGGUACAUGAGGAUCACCCAUGUAGGCAGGUAGGUCGCCUCGCUCUCA [Bibienoned]",
    "Tested system": "MS2 coat protein",
    "apparent KD of MS2 coat protein / nM": 10.4
  },
  {
    "Sequence text": "CGAUCUUUCGAAAGAAGGAUCGAGUCUGAUACCAGAGACGAAAGUCUCCCUUGGCAGCAGUGCCAACAUGAGGAUCACCCAUGUU [Theophylline A 10]",
    "Tested system": "MS2 coat protein",
    "apparent KD of MS2 coat protein / nM": 15.8
  }
]

Can you give me apparent KD of MS2 coat protein for all of these, one by one?
1. GGAUAGGACAGAAGGAGCGACAUCGCCGAAAGGCUGGUAAGAUCACAUGAGGAUCACCCAUGUCAGGUAGGUCGCUGUCCUAUCG [ArgXB 11 #Zipper #MS2Left #StaticStem #Blueprint]
2. AAUAACGUGAGGAUCACCCACGUAAAAGAUACCAGAGUGAUGAUCCUCCCUUGGCAGCUUAACGCUGAUUGAUUACAAUCAGCGA
3. CUAAGAGCGGCGGCCGCCACUGGUAACCGAGAGGAGGAGCCUCUGACAUGAGGAUCACCCAUGUUCAGGACCGGGUCGUCUUAGA [#06 Same State - Tryptophan B]
4. GGUGGCGUGACGGAUACCAGCCACCGCCGCAAGGCAACAUGAGGAUCACCCAUGUUGGGUGGCCCUUGGCAGCUGUCGUGCGGCG [#1 Same State - Theophylline B Attempt #22 (HarryS)]
5. UGUAUGUGAUCUGAUACCAGUCCAACUGGUAAAACUUGAGGAUCACCCAGGUAAAAUUGGGACCCUUGGCAGCAGAUCGCAUACU
6. GGCCCUGCGAGCGCUCGCAGGGCCGCGGAUACCAGCGAGGUCCAUCGCCCUUGGCAGCCGAACAUGAGGAUCACCCAUGUCGGUA [#1 Same State - Theophylline A Attempt #13 (HarryS)]

Reply text:
1. 308
2. 49.6
3. 54.6
4. 50.2
5. 705
6. 9.44

Can you give me apparent KD of MS2 coat protein for all of these, one by one?
1. ACGAUACGACAUGAGGAUCACCCAUGUGAUACCAGCGUGGAAACACGCCCUUGGCAGCACAAAUACUCCAGAAACGUAUCGAAAA [MAT - Exclusion Theophlline A - Mod of Eli - D7]
2. CUAUUUAUAGCGGCCGCCACUUACUCAUGAGGUAACAACAUGAGGAUCACCCAUGUUUGAGGAUCAAGGACCGGGCUAUAGAUAG [AstrosSSTryB#11]
3. UGUAUGGACUGAAGGAGCGGAAAAUAAACCUGAGGAUCACCCGGGUAAUAGGCGAAAGCCAUCCAGGUAGGUCGCAGUCCAUACU

Reply text:
1. 285
2. 15
3. 291
